Molecular target: T1, cynomolgus Trop-2-His protein (cynomolgus, UniProt P09758 27-274 (human entry))
T1 construct: also called cynmolgus Trop-His; Kactus Cat #TRP-CM121; not shown: His tag
T1 chain: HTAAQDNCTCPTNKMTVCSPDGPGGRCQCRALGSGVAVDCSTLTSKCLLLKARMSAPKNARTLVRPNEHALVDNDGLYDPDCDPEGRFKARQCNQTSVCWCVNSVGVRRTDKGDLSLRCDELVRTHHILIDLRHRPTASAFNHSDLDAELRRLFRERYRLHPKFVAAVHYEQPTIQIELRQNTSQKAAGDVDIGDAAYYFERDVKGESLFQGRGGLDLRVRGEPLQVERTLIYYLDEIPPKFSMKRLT
Test: ELISA, coated Trop-2 protein
Could you please report measured EC50 for the items listed next?
Record the value in nM, omitting the unit from your answer.

Value of measured EC50 for the entry 9D7 (antibody, V domains shown, Rabbit-derived clone; LEM construct: VH + rabbit IgG CH1 + human IgG1 CH2-CH3) VH: QSLEESGGDLVQPGASLTLTCKASGFDLNNYSILWVRQAPGKGLEWIGCIYISGGSTYYANWAKGRFAISKTSSTTVTLQMTSLTAADTATYFCARDDGTASYYLNLWGPGTLVTVSS VL: YDMTQTPASVSEPVGGTVTIKCQASEDIYKLLAWYQQKPGQPPKLLIYAASDLESGVPSRFKGRGSGTDYTLTISDLECADAATYYCQQAYTIGNIDNSFGGGTEVVVK : 0.016

Form: binder = 65D5 (antibody, V domains shown, Rabbit-derived clone; LEM construct: VH + rabbit IgG CH1 + human IgG1 CH2-CH3) VH: QEQLKESGGGLVQPGGSLKLSCKASGFDFNAYGVSWVRQAPGKGLEWIAYIYPAFHNTYYATWVNGRFTISSHNAQNTLYLQLNTLTAADTATYFCARDAGTTDYNFNLWGPGTLVTVSS VL: DIVMTQTPASVSEPVGGTVTIKCQASQSISSYLAWYQQKPGQPPKLLIYEATKLTSGVSSRFSGSGYGTEFTLTISGVECADAATYYCQQALTVGDVDNPFGGGSEVVVK ; EC50 = 0.015

Item: 10A9 (antibody, V domains shown, Rabbit-derived clone; LEM construct: VH + rabbit IgG CH1 + human IgG1 CH2-CH3) VH: QSLEESGGDLVQPGASLTLTCKASGFDLNNYAMLWVRQAPGKGLEWIGCIYISGGTTYFASWATGRFAISKTSSTTVTLQMTSLTAADTATYFCARDDGTTSYYLNLWGPGTLVTVSS VL: YDMTQTPASVSAAVGGTVTIKCQASEDIYSLLAWYQQKPGQPPKLLIYGASNLESGVPSRFKGSGSGTEYTLTISDLECDDAATYYCQQAYTIGNIDNAFGGGTEVVVK | EC50: 0.015

Sourced from patent US20250206841A1
